Target: first (BD1: amino acids K57-E168) bromodomain of BRD4 (Homo sapiens)
Construct: His-tagged first (BD1: amino acids K57-E168)
Experiment: TR-FRET bromodomain binding assay, BRD4 BD1
Conditions: TR-FRET assay protocol (A-G, compound concentration range); Ki calculated from IC50, probe Kd and probe concentration; read-out: TR-FRET Binding Ki: BRD4 (BDI_K57-E168)
measured attribute: Ki (µM)
Numbers only here, please. The scale is µM.

{"smiles input": "CCS(=O)(=O)Nc1ccc(Oc2ccc(F)cc2F)c(-c2cn(C)c(=O)cc2-c2cnn(CCN3CCOCC3)c2)c1", "measured attribute": "Ki", "val": 0.0102}
{"smiles input": "Cn1cc(-c2ccccc2Oc2ccccc2)ccc1=O", "measured attribute": "Ki", "val": 0.635}
{"smiles input": "Cn1cc(-c2cc(NS(C)(=O)=O)ccc2Oc2ccc(F)cc2F)cc(Cl)c1=O", "measured attribute": "Ki", "val": 0.0204}

I would be grateful if you could share the reported Ki for `CCS(=O)(=O)Nc1ccc(Oc2ccc(F)cc2F)c(-c2cn(C)c(=O)cc2NC2CC2)c1` . 0.00581

###

Some compounds, each annotated with its measured EC50.
Tested on: Ly18
Test: Proliferation panel assay: Ly18
Assay type: cell-based
Settings: 120 h; Ly18 (NHL); 5 days, Cell Titer Glo; read-out: Cellular Proliferation EC50
All answers are understood in nM, so give the number only.

{"smiles input": "Cc1cc(-c2cc(NS(C)(=O)=O)ccc2Oc2ccccc2)c[nH]c1=O", "val": 510}

Shifting focus to the compound that follows.
Hi! What's the reported EC50 for `Cn1cc(-c2cc(NS(C)(=O)=O)ccc2Oc2ccccc2)ccc1=O` on Ly18? 520

###

Target: second (BD2: amino acids E352-E168) bromodomain of BRD4 (Homo sapiens, UniProt O60885)
Construct: protocol
Assay: TR-FRET bromodomain binding assay, BRD4 BD2
Details: TR-FRET assay protocol (A-G, compound concentration range); Ki calculated from IC50, probe Kd and probe concentration; read-out: TR-FRET Binding Ki: BRD4 (BDII_E352-M457)
Let's look at some compounds and their measured pKi.
// field semantics: pKi = negative decimal log of concentration (mol/L)

{"compound": "Cn1cc(-c2cc(NS(C)(=O)=O)ccc2Oc2ccc(C(F)(F)F)cc2)ccc1=O [Example 231]", "pKi": 6.27}
{"compound": "CCS(=O)(=O)Nc1cc(-c2ccc(=O)n(C)c2)c(OCC2CC2)cc1C [Example 366]", "pKi": 6.24}
{"compound": "Cn1nc(-c2ccccc2Oc2ccccc2)c(-c2ccc(C3=NCCCO3)cc2)cc1=O [Example 95]", "pKi": 6.84}

Data request, read-out pKi, for CC(=O)Nc1ccc(Oc2ccccc2)c(-c2c[nH]c(=O)c(C)c2)c1 [Example 262] 6.54

Next record, please: Cn1nc(-c2cc(C(N)=O)ccc2Oc2ccccc2)ccc1=O [Example 14] 5.91

Likewise for CC(C)Oc1ccc(-c2cc(=O)n(C)nc2-c2ccccc2Oc2ccccc2)cc1F [Example 111] ? 5.71

And Cn1nc(-c2ccccc2Oc2ccccc2)c(-c2ccc(C(=O)NC3CCCC3)cc2)cc1=O [Example 169] ? 6.25

###

Target: second (BD2: amino acids E352-E168) bromodomain of BRD4 (Homo sapiens)
Construct: protocol
Test: TR-FRET bromodomain binding assay, BRD4 BD2
Details: TR-FRET assay protocol (D, E or G) per compound; Ki calculated from IC50, probe Kd and probe concentration; read-out: TR-FRET Binding Ki: BRD4 (BDII_E352-M457)
Listing: Ki of selected compounds
Number in nM, nothing else.

In the examples that follow, each entry is paired with its recorded Ki.
{"compound": "CCS(=O)(=O)Nc1ccc(Oc2ccc(F)cc2F)c(-c2cn(C)c(=O)cc2-c2cnn(Cc3ccccc3)c2)c1 [Example 390]", "val": 13.5}
{"compound": "CCOc1cc(=O)n(C)cc1-c1cc(NS(=O)(=O)CC)ccc1OC1CCN(c2ccc(C(F)(F)F)cc2)CC1 [Example 410]", "val": 560}

Return reported Ki; argument: CCOc1cc(=O)n(C)cc1-c1cc(CS(=O)(=O)CC)ccc1Oc1ccc(F)cc1F [Example 379] 16.1

Okay, and CCOc1cc(=O)n(C)cc1-c1cc(N)ccc1Oc1ccc(F)cc1F [Example 406] ? 567

Further, for CCOc1cc(=O)n(C)cc1-c1cc(NS(=O)(=O)CC)ccc1O[C@H]1CC[C@H](NC(=O)OC(C)(C)C)CC1 [Example 395] ? 221

Check CCOc1cc(=O)n(C)cc1-c1cc(NS(=O)(=O)CC)ccc1Oc1ccc(Cl)cc1 [Example 400] too. 1.81

Param item: CCOc1cc(=O)n(C)cc1-c1cc(NS(=O)(=O)CC)ccc1OC1CCC(F)(F)CC1 [Example 385] 140

Another compound to check: CCOc1cc(=O)n(C)cc1-c1cc(S(=O)(=O)CC)ccc1Oc1ccc(F)cc1F [Example 375] 3.22

###

Catalogue of pKi values
Biological target: first (BD1: amino acids K57-E168) bromodomain of BRD4 (Homo sapiens)
Construct: His-tagged first (BD1: amino acids K57-E168)
Assay: TR-FRET bromodomain binding assay, BRD4 BD1
Conditions: TR-FRET assay protocol (A-G, compound concentration range); Ki calculated from IC50, probe Kd and probe concentration; read-out: TR-FRET Binding Ki: BRD4 (BDI_K57-E168)
Protocol: A time-resolved fluorescence resonance energy transfer (TR-FRET) assay was used to determine the affinities of compounds of the Examples listed in Table 1 for each bromodomain of BRD4. […] TR-FRET data were normalized to the means of 24 no-compound controls (“high”) and 8 controls containing 1 μM un-labeled probe (“low”). […] Inhibition constants (Ki) were calculated from the IC50s, probe Kd and probe concentration. […]
# pKi: negative log10 of molar concentration; output just the value

Consider the reported pKi for these compounds:
{"smiles input": "Cn1cc(-c2cc(NS(C)(=O)=O)ccc2Oc2cccc(C(F)(F)F)c2)ccc1=O", "val": 6.94}
{"smiles input": "Cn1ccc(-c2cc(=O)n(C)nc2-c2ccccc2Oc2ccccc2)cc1=O", "val": 5.54}
{"smiles input": "CCOc1cc(=O)n(C)cc1-c1cc(S(=O)(=O)C(C)C)ccc1Oc1ccc(F)cc1F", "val": 8.28}
{"smiles input": "CC1CCN(C(=O)c2cccc(-c3cc(=O)n(C)nc3-c3ccccc3Oc3ccccc3)c2)CC1", "val": 4.92}
{"smiles input": "CCOc1cc(=O)n(C)cc1-c1cc(NCCC(C)(C)C)ccc1Oc1ccc(F)cc1F", "val": 6.27}

Please state recorded pKi (tested on first (BD1: amino acids K57-E168) bromodomain of BRD4 (Homo sapiens)) of `Cn1cc(-c2cc(NS(C)(=O)=O)ccc2Oc2ccccc2)ccc1=O` 7.32

Input `Cn1nc(-c2ccccc2Oc2ccc(C(F)(F)F)cc2)ccc1=O` 5.71

###

Biological target: first (BD1: amino acids K57-E168) bromodomain of BRD4 (Homo sapiens)
Construct: His-tagged first (BD1: amino acids K57-E168)
Assay: TR-FRET bromodomain binding assay, BRD4 BD1
Conditions: TR-FRET assay protocol (A-G, compound concentration range); Ki calculated from IC50, probe Kd and probe concentration; read-out: TR-FRET Binding Ki: BRD4 (BDI_K57-E168)
measured attribute: pKi
Kindly note that pKi refers to -log10 of the concentration in mol/L and answer with the value alone.

Known results for compounds:
{"compound": "CN1CCN(c2cc(-c3cc(=O)n(C)nc3-c3ccccc3Oc3ccccc3)ccn2)CC1", "val": 6.07}
{"compound": "Cn1nc(-c2ccccc2Oc2ccccc2)c(-c2ccc3c(ccn3C)c2)cc1=O", "val": 6.05}
{"compound": "COc1cc(=O)n(C)nc1-c1ccccc1Oc1ccc(Cl)cc1", "val": 5.76}

Could you share which pKi value was measured for CCOc1cc(=O)n(C)cc1-c1cc(NC(=O)C2CCN(c3ccccc3)C2=O)ccc1Oc1ccc(F)cc1F (centres unmarked) ? 6.56

Same thing, different compound: `Cc1cc(-c2cc(=O)n(C)nc2-c2ccccc2Oc2ccccc2)ccn1` 5.55

Moving on to `Cn1nc(-c2ccccc2Oc2ccccc2)c(-c2ccc(C=O)cc2)cc1=O` 6.10

Same again, this time with `CCS(=O)(=O)Nc1ccc(Oc2ccc(F)cc2F)c(-c2cn(C)c(=O)cc2OC)c1` 8.01

And what about the compound `Cn1cc(-c2cc(NS(C)(=O)=O)ccc2Oc2cccnc2)ccc1=O` ? 7.67

###

Test system: HepG2
Assay: Proliferation panel assay: HepG2
Format: cell-based
Settings: Homo sapiens, 120 h; HepG2 (Hepatocellular); 5 days, Cell Titer Glo; read-out: Cellular Proliferation EC50
measured attribute: EC50 (nM)
Give just the number in nM; leave the unit off.

{"smiles input": "Cn1cc(-c2cc(NS(C)(=O)=O)ccc2Oc2ccccc2)ccc1=O", "val": 486}

Could you now look at the following compound, please?
Recorded EC50 of `Cc1cc(-c2cc(NS(C)(=O)=O)ccc2Oc2ccccc2)c[nH]c1=O` , please. 510
